Tested on: slender amaranth (Amaranthus viridis)
Run Description: Test Example 1: foliar application pot test, visual growth control rating
Assay type: in vivo
Conditions Used: 0.31 g/a active ingredient, wettable powder, observed 20 to 31 days after application
Value Kind: degree of growth control, AM

1. COc1nc(C)nc(NC(=O)NS(=O)(=O)c2cccc(N(C(C)C)S(=O)(=O)C(C)Cl)n2)n1 (racemic) [compound 93]; 9
2. CCN(c1cccc(S(=O)(=O)NC(=O)Nc2nc(C)nc(OC)n2)n1)S(=O)(=O)C(C)Cl (racemic) [Compound No. 54]; 9
3. CCN(c1cccc(S(=O)(=O)NC(=O)Nc2nc(C)nc(OC)n2)n1)S(=O)(=O)C(C)C [Compound No. 1]; 10
4. CCN(c1cccc(S(=O)(=O)NC(=O)Nc2nc(OC)nc(OC)n2)n1)S(=O)(=O)C(C)C [Compound No. 2]; 10
5. CCN(c1cccc(S(=O)(=O)NC(=O)Nc2nc(OC)nc(OC)n2)n1)S(=O)(=O)C(C)Cl (racemic) [Compound No. 55]; 6
